measured.target: 5'-AMP-activated protein kinase catalytic subunit alpha-2 (Homo sapiens)
The recorded ΔTm of each item maps onto one of these classes: lower range: < -0.4 °C; middle range: ≥ -0.4 °C and < 0.7 °C; upper range: ≥ 0.7 °C

Check out these entries, answers already filled in.
[Q] Category of CCN(CC)CCNC(=O)c1c(C)[nH]c(/C=C2\C(=O)Nc3ccc(F)cc32)c1C :
[A] upper range

[Q] Category of CC(=O)O/N=C1/C(=C2/C(=O)Nc3cc(Br)ccc32)Nc2ccccc21 :
[A] upper range

More entries:
[Q] Category of O=C1Nc2ccc(I)cc2/C1=C1/Nc2ccccc2/C1=N\O :
[A] upper range

[Q] Category of COc1cc2ncnc(Nc3ccc(NC(=O)c4ccccc4)cc3)c2cc1OC :
[A] upper range

[Q] Category of CN(C)c1ccc(CC2C(=O)Nc3ccccc32)cc1 (stereo unspecified) :
[A] middle range

----------
# Serine/threonine-protein kinase 10 (Homo sapiens) (UniProt O94804): ΔTm values follow
# Sequence (O94804 whole entry, looked up): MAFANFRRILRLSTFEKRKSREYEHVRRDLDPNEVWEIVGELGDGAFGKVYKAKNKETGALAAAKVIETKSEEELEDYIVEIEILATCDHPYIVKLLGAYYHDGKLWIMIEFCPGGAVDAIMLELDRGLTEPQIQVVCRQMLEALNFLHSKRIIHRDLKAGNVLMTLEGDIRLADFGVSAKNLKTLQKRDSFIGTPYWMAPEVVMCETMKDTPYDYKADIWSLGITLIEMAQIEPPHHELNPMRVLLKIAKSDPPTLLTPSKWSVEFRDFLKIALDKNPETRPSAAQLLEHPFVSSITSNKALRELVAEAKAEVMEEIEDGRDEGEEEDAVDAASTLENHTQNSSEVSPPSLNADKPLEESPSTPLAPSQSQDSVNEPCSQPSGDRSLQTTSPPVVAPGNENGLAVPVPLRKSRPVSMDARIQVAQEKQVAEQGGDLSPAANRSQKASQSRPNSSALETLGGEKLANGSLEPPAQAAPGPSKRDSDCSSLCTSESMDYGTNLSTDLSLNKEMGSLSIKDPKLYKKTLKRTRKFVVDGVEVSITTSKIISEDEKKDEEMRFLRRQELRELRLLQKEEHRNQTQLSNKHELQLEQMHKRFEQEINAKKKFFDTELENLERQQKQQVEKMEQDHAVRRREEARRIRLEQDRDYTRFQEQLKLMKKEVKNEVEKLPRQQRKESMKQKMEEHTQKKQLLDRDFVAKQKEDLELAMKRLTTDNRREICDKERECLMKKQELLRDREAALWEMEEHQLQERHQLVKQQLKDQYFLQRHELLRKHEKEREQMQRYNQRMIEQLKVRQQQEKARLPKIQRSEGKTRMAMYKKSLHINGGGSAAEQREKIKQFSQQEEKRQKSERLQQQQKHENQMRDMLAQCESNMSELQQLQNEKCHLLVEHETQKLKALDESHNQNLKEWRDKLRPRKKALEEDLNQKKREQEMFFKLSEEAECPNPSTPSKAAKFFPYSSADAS
A number alone suffices; assume °C.

The examples below pair each entry with its known result.
[Q] Which measured ΔTm belongs to O=C(Nc1cccc(Nc2nccc(Nc3cccc(C(F)(F)F)c3)n2)c1)C1CC1 [ANILINOPYRIMIDINE1] , tested on Serine/threonine-protein kinase 10 (Homo sapiens) (UniProt O94804)?
[A] 1

[Q] Which measured ΔTm belongs to NC(=O)c1ccc(-c2nc(-c3ccc4c(c3)OCCO4)c(-c3ccccn3)[nH]2)cc1 , tested on Serine/threonine-protein kinase 10 (Homo sapiens) (UniProt O94804)?
[A] 0.4

[Q] Which measured ΔTm belongs to O=S(=O)(c1cccc2c(Cl)cccc12)N1CCCNCC1 , tested on Serine/threonine-protein kinase 10 (Homo sapiens) (UniProt O94804)?
[A] 0.4

More entries:
[Q] Which measured ΔTm belongs to C#Cc1cccc(Nc2ncnc3cc(OCCOC)c(OCCOC)cc23)c1 , tested on Serine/threonine-protein kinase 10 (Homo sapiens) (UniProt O94804)?
[A] 0

[Q] Which measured ΔTm belongs to COc1cc2ncnc(Nc3ccc(NC(=O)c4ccccc4)cc3)c2cc1OC [ANILINOQUINAZOLINE1] , tested on Serine/threonine-protein kinase 10 (Homo sapiens) (UniProt O94804)?
[A] 0.1

[Q] Which measured ΔTm belongs to N=C(N)NCCNS(=O)(=O)c1cccc2cnccc12 , tested on Serine/threonine-protein kinase 10 (Homo sapiens) (UniProt O94804)?
[A] 0.7

[Q] Which measured ΔTm belongs to Cc1cc(C=C2C(=O)C=CC2=O)cc(C)c1O , tested on Serine/threonine-protein kinase 10 (Homo sapiens) (UniProt O94804)?
[A] 1.2

[Q] Which measured ΔTm belongs to CCOC(=O)c1c(C)[nH]c(/C=C2\C(=O)Nc3ccccc32)c1C , tested on Serine/threonine-protein kinase 10 (Homo sapiens) (UniProt O94804)?
[A] 1.6

----------
measured.target: UniProt:P49761
Sequence (P49761 whole entry, looked up): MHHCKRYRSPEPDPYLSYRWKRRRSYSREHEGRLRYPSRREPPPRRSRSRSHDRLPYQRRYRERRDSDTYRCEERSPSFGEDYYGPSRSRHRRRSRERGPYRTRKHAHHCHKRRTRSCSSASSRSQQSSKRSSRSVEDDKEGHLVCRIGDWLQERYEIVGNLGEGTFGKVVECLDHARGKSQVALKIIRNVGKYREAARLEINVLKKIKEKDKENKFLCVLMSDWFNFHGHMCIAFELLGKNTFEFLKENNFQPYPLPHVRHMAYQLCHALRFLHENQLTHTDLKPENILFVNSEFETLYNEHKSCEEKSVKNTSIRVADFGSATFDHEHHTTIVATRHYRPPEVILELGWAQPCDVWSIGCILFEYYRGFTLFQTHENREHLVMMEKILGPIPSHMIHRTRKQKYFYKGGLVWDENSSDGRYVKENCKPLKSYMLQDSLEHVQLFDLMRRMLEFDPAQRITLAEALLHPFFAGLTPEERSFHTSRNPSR
The recorded ΔTm of each item maps onto one of these classes: low: < 0 °C; intermediate: ≥ 0 °C and < 2 °C; high: ≥ 2 °C

Check out these entries, answers already filled in.
[Q] Category of Cc1ccc(NC2=CC(=O)c3sc(C)nc3C2=O)cc1 :
[A] low

[Q] Category of CSc1nc(-c2ccc(F)cc2)c(-c2ccnc(NC(C)c3ccccc3)c2)[nH]1 (racemic) :
[A] low

[Q] Category of Nc1cc2ncnc(Nc3cccc(Br)c3)c2cc1N :
[A] intermediate

[Q] Category of CC(C)N(CCO)c1nc(Nc2cccc(Cl)c2)c2ncn(C(C)C)c2n1 :
[A] high

[Q] Category of O=C(O)c1cc(N(Cc2ccccc2O)Cc2cc(O)ccc2O)ccc1O [LAVENDUSTIN A] :
[A] intermediate

[Q] Category of Cc1cc(C=C2C(=O)C=CC2=O)cc(C)c1O :
[A] low

[Q] Category of COc1cc2ncnc(Nc3ccc(NC(=O)c4ccccc4)cc3)c2cc1OC [ANILINOQUINAZOLINE1] :
[A] intermediate

[Q] Category of O=C1Nc2ccc(I)cc2/C1=C1/Nc2ccccc2/C1=N\O :
[A] high

[Q] Category of O=C1NC(=O)C(c2c[nH]c3ccccc23)=C1c1c[nH]c2ccccc12 :
[A] high

[Q] Category of CC(C)n1cnc2/c(=N/c3cccc(Cl)c3)nc(NCCO)[nH]c21 :
[A] high

More entries:
[Q] Category of O=C1Nc2ccccc2/C1=C1/Nc2ccccc2/C1=N\O :
[A] high

[Q] Category of NC(=O)c1ccc2[nH]c(-c3ccc(Oc4ccc(Cl)cc4)cc3)nc2c1 :
[A] intermediate

[Q] Category of NC(=O)c1ccc(-c2nc(-c3ccc4c(c3)OCCO4)c(-c3ccccn3)[nH]2)cc1 :
[A] intermediate

[Q] Category of CCN(CC)CCNC(=O)c1c(C)[nH]c(/C=C2\C(=O)Nc3ccc(Cl)cc32)c1C [SU-11652] :
[A] high

[Q] Category of O=S(=O)(NCCNC/C=C/c1ccc(Br)cc1)c1cccc2cnccc12 :
[A] intermediate

[Q] Category of COc1cc(/C=C/C(=O)CC(=O)/C=C/c2ccc(O)c(OC)c2)ccc1O [CURCUMIN] :
[A] high

[Q] Category of Cc1[nH]c(/C=C2\C(=O)Nc3ccc(S(=O)(=O)N(C)c4cccc(Cl)c4)cc32)c(C)c1C(=O)N1CCN(C)CC1 :
[A] high

[Q] Category of COc1cc(O)c2c(c1)oc(=O)c1c3cc(O)c(O)cc3oc21 [WEDELOLACTONE] :
[A] high

[Q] Category of CCN(CC)CCNC(=O)c1c(C)[nH]c(/C=C2\C(=O)Nc3ccc(F)cc32)c1C :
[A] high

[Q] Category of CN(C)S(=O)(=O)c1ccc2c(c1)/C(=C/c1cc3c([nH]1)CCCC3)C(=O)N2 :
[A] high

[Q] Category of C=CNC#N :
[A] intermediate

[Q] Category of C[S+]([O-])c1ccc(-c2nc(-c3ccc(F)cc3)c(-c3ccncc3)[nH]2)cc1 (centres undefined) [SB-203580] :
[A] low

[Q] Category of O=c1cc(N2CCOCC2)oc2c(-c3ccccc3)cccc12 :
[A] intermediate

[Q] Category of Oc1ccc(-c2nc(-c3ccc(F)cc3)c(-c3ccncc3)[nH]2)cc1 :
[A] low

----------
Overview of reported ΔTm across a group of molecules:
measured.target: Dual specificity mitogen-activated protein kinase kinase 2 (Homo sapiens, UniProt P36507)
Sequence (P36507 whole entry): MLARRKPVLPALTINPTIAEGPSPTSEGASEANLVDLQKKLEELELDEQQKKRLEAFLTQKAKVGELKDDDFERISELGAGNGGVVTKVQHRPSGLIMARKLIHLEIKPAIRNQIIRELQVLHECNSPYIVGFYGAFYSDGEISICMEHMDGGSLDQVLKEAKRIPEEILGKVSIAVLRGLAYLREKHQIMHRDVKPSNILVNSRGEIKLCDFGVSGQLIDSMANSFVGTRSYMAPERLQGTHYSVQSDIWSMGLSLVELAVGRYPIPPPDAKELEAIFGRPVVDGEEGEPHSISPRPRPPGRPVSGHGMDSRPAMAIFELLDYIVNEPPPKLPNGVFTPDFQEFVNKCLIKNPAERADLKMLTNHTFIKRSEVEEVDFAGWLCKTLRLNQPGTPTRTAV

The examples below pair each entry with its known result.
[Q] Which measured ΔTm belongs to CN(C)c1ccc(CC2C(=O)Nc3ccccc32)cc1 (stereo not given) , tested on Dual specificity mitogen-activated protein kinase kinase 2 (Homo sapiens, UniProt P36507)?
[A] 1.4 °C

[Q] Which measured ΔTm belongs to Nc1cc2ncnc(Nc3cccc(Br)c3)c2cc1N , tested on Dual specificity mitogen-activated protein kinase kinase 2 (Homo sapiens, UniProt P36507)?
[A] 1.2 °C

[Q] Which measured ΔTm belongs to O=C1NC(=O)C(c2c[nH]c3ccccc23)=C1c1c[nH]c2ccccc12 , tested on Dual specificity mitogen-activated protein kinase kinase 2 (Homo sapiens, UniProt P36507)?
[A] 2.8 °C

[Q] Which measured ΔTm belongs to Cn1cnc2c(NCc3ccccc3)nc(NCCO)nc21 [OLOMOUCINE] , tested on Dual specificity mitogen-activated protein kinase kinase 2 (Homo sapiens, UniProt P36507)?
[A] -0.4 °C

[Q] Which measured ΔTm belongs to Nc1n[nH]c2nnc(-c3c(-c4ccccc4)nn4ccccc34)cc12 , tested on Dual specificity mitogen-activated protein kinase kinase 2 (Homo sapiens, UniProt P36507)?
[A] 0.7 °C

More entries:
[Q] Which measured ΔTm belongs to O=c1sn(Cc2ccccc2)c(=S)n1Cc1ccccc1 , tested on Dual specificity mitogen-activated protein kinase kinase 2 (Homo sapiens, UniProt P36507)?
[A] 0 °C

[Q] Which measured ΔTm belongs to O=C(O)c1cc(N(Cc2ccccc2O)Cc2cc(O)ccc2O)ccc1O [LAVENDUSTIN A] , tested on Dual specificity mitogen-activated protein kinase kinase 2 (Homo sapiens, UniProt P36507)?
[A] 0.5 °C

[Q] Which measured ΔTm belongs to CN(C)c1ncnc2nc[nH]c12 [DIMETHYLADENINE] , tested on Dual specificity mitogen-activated protein kinase kinase 2 (Homo sapiens, UniProt P36507)?
[A] -0.2 °C

[Q] Which measured ΔTm belongs to CN(c1cccnc1)c1cc2c(Nc3ccc(F)c(Cl)c3)c(C#N)cnc2cn1 , tested on Dual specificity mitogen-activated protein kinase kinase 2 (Homo sapiens, UniProt P36507)?
[A] 2.1 °C

[Q] Which measured ΔTm belongs to Cc1ccc(NC2=CC(=O)c3sc(C)nc3C2=O)cc1 , tested on Dual specificity mitogen-activated protein kinase kinase 2 (Homo sapiens, UniProt P36507)?
[A] -2 °C

[Q] Which measured ΔTm belongs to COc1cc(O)c2c(c1)oc(=O)c1c3cc(O)c(O)cc3oc21 [WEDELOLACTONE] , tested on Dual specificity mitogen-activated protein kinase kinase 2 (Homo sapiens, UniProt P36507)?
[A] 0.1 °C

[Q] Which measured ΔTm belongs to Cn1cc(/C=C2/C(=O)Nc3ccc(S(N)(=O)=O)cc32)c2ccccc21 , tested on Dual specificity mitogen-activated protein kinase kinase 2 (Homo sapiens, UniProt P36507)?
[A] 1.1 °C

[Q] Which measured ΔTm belongs to CN(C)CCCn1cc(C2=C(c3c[nH]c4ccccc34)C(=O)NC2=O)c2ccccc21 [GF-109203] , tested on Dual specificity mitogen-activated protein kinase kinase 2 (Homo sapiens, UniProt P36507)?
[A] 0.1 °C

[Q] Which measured ΔTm belongs to Cc1cc(Nc2nc(-c3ccccc3)nc3ccccc23)n[nH]1 , tested on Dual specificity mitogen-activated protein kinase kinase 2 (Homo sapiens, UniProt P36507)?
[A] 3.2 °C

[Q] Which measured ΔTm belongs to C[S+]([O-])c1ccc(-c2nc(-c3ccc(F)cc3)c(-c3ccncc3)[nH]2)cc1 (stereo not given) [SB-203580] , tested on Dual specificity mitogen-activated protein kinase kinase 2 (Homo sapiens, UniProt P36507)?
[A] 0.2 °C

[Q] Which measured ΔTm belongs to O=C1C=C2C(=Nc3c2c2c(c4c3=NC3=C4CCC=C3)C=NC=2)CC1 , tested on Dual specificity mitogen-activated protein kinase kinase 2 (Homo sapiens, UniProt P36507)?
[A] 3.1 °C

[Q] Which measured ΔTm belongs to C=CNC#N , tested on Dual specificity mitogen-activated protein kinase kinase 2 (Homo sapiens, UniProt P36507)?
[A] 1.8 °C

[Q] Which measured ΔTm belongs to COc1cc(C[C@H]2C(=O)OC[C@@H]2Cc2ccc(OC)c(OC)c2)ccc1O [ARCTIGENIN] , tested on Dual specificity mitogen-activated protein kinase kinase 2 (Homo sapiens, UniProt P36507)?
[A] 0 °C
